Measured quantity: melting point

Field: example entries. Status: answers known.
Cc1ccccc1C1CCN(CC2CCc3c(F)cccc3C(O)C2)CC1.Cl (racemic)	231 to 233 °C
Cc1cccc(C2CCN(C[C@@H]3CCc4c(C)cccc4[C@H](O)C3)CC2)c1.Cl (racemic)	> 250 °C
Cc1cccc(C2CCN(C[C@H]3CCc4c(Br)cccc4[C@H](O)C3)CC2)c1.Cl (racemic)	> 250 °C
Cc1cccc2c1CC[C@@H](CN1CCC(c3ccccc3Cl)CC1)C[C@H]2O.Cl (racemic)	> 250 °C

Could you now consider this next compound?
QUERY: Any idea what its melting point is? The compound is Cl.O[C@@H]1C[C@H](CN2CCC(c3ccccc3Cl)CC2)CCc2c(F)cccc21 (racemic)
RESULT: 245 to 247 °C
